molecular target: hCRTH2 receptor (Homo sapiens, UniProt Q9Y5Y4); construct: expressed in transfected cells; host or cells: HEK293; experiment: Radioligand displacement assay (3H-PGD2) on hCRTH2 receptor membranes; format: binding; conditions: antagonistic activity, 3H-PGD2 radioligand displacement, HEK293-hCRTH2 membranes
Sequence (Q9Y5Y4 whole entry, the tested form may be a part): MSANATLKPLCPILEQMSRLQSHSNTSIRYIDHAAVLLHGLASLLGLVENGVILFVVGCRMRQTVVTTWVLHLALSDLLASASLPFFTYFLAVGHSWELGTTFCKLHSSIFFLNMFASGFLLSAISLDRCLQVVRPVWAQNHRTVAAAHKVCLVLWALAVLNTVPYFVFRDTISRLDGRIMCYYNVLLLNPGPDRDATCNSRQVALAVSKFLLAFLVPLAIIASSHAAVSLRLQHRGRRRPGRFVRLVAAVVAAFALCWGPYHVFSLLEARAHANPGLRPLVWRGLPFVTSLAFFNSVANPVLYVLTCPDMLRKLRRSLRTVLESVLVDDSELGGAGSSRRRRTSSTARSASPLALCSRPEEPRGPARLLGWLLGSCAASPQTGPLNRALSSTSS
MEASURED METRIC: IC50 (nM)

{"columns": ["COMPOUND", "IC50, nM"],
 "data": [
  ["O=C(O)COc1ccc(Cl)cc1C1c2ccccc2CCN1C(=O)COc1cncc(F)c1 (racemic)", 232]
]}

[1] Cc1nn(CCC(=O)N2CCc3cc(F)ccc3[C@H]2c2cc(Cl)ccc2OCC(=O)O)c2cc(Cl)ccc12
[2] CC[C@@H]1C[C@H]1C(=O)N1CCc2ccccc2[C@H]1c1cc(Cl)ccc1OCC(=O)O
[3] Cn1cnc2cc(OCC(=O)N3CCc4ccccc4C3c3cc(Cl)ccc3OCC(=O)O)cnc21 (racemic)
Hello, I need these entries ordered by IC50, highest reading first. Thanks! Write out the labels following the order that was asked for. 3, 1, 2
(3: 470 nM, 1: 185 nM, 2: 67.8 nM)

###

molecular target: hCRTH2 receptor (Homo sapiens, UniProt Q9Y5Y4); construct: expressed in transfected cells; host or cells: HEK293; experiment: Radioligand displacement assay (3H-PGD2) on hCRTH2 receptor membranes; format: binding; settings: antagonistic activity; 3H-PGD2 displacement on HEK293-hCRTH2 membrane fragments
MEASURED METRIC: IC50 (nM)

[I] O=C(O)COc1ccc(F)cc1[C@@H]1c2ccccc2CCN1C(=O)[C@@H]1C[C@H]1c1ccccc1 (single isomer, unassigned) [Example 29]
[II] O=C(O)COc1cccc(F)c1C1c2ccccc2CCN1C(=O)OCc1ccccc1 (racemic)
[III] O=C(O)COc1ccc(Cl)cc1C1c2ccccc2CCN1C(=O)OCc1ccc(Cl)cc1Cl (racemic)
Returns the items ordered by IC50, from maximum to minimum. Write out the labels following the order that was asked for. II, I, III
(II: 182 nM, I: 7.72 nM, III: 0.96 nM)

[P] Cc1cc(COC(=O)N2CCc3ccccc3[C@H]2c2cc(Cl)ccc2OCC(=O)O)on1
[Q] COc1ccccc1COC(=O)N1CCc2ccccc2C1c1cc(Cl)ccc1OCC(=O)O (racemic)
[R] C[C@@H](Oc1ccc(Cl)cc1C1c2ccccc2CCN1C(=O)OCc1ccccc1)C(=O)O (stereo partly shown)
[S] Cc1csc(COC(=O)N2CCc3ccccc3[C@H]2c2cc(Cl)ccc2OCC(=O)O)n1
Hello, I need these entries ordered by IC50, highest reading first. Thanks! Write out the labels following the order that was asked for. R, Q, S, P
(R: 21 nM, Q: 4.55 nM, S: 1.82 nM, P: 0.87 nM)

###

biological target: hCRTH2 receptor (Homo sapiens, UniProt Q9Y5Y4); construct: expressed in transfected cells; host or cells: HEK293; assay: Radioligand displacement assay (3H-PGD2) on hCRTH2 receptor membranes; assay type: binding; conditions: antagonistic activity, 3H-PGD2 radioligand displacement, HEK293-hCRTH2 membranes
MEASURED METRIC: IC50 (nM)

{"columns": ["MOLECULE", "IC50 (nM)"],
 "data": [
  ["O=C(O)COc1ccc(Cl)cc1C1c2ccccc2CCN1C(=O)CCN1CCSC1=O (racemic)", 312],
  ["Cc1cn(CCC(=O)N2Cc3ccccc3C2c2cc(Cl)ccc2OCC(=O)O)c2ccccc12 (racemic)", 37.4],
  ["Cc1csc(COC(=O)N2CCc3c(ccc(F)c3F)[C@H]2c2cc(Cl)ccc2OCC(=O)O)n1", 5.7]
]}

[a] Cc1nc(COC(=O)N2CCc3cc(F)ccc3[C@H]2c2cc(Cl)ccc2OCC(=O)O)cs1
[b] Cc1nn(CCC(=O)N2Cc3ccccc3C2c2cc(Cl)ccc2OCC(=O)O)c2cc(F)ccc12 (single isomer, unassigned) [Example 531]
[c] Cc1nc2ccccc2n1CCOC(=O)N1CCc2cc(F)ccc2[C@H]1c1cc(Cl)ccc1OCC(=O)O
[d] O=C(O)COc1ccc(Cl)cc1C1c2ccccc2CN1C(=O)CCn1ncc2cccc(Cl)c21 (single isomer, unassigned) [Example 548]
Number of molecules to sort: 4. Sort criterion: IC50, ascending. Write out the labels following the order that was asked for. a, b, c, d
(a: 5.9 nM, b: 30.9 nM, c: 266 nM, d: 715 nM)

###

biological target: hCRTH2 receptor (Homo sapiens); construct: expressed in transfected cells; host or cells: HEK293; assay: Radioligand displacement assay (3H-PGD2) on hCRTH2 receptor membranes; assay type: binding; conditions: antagonistic activity, 3H-PGD2 radioligand displacement, HEK293-hCRTH2 membranes
MEASURED METRIC: IC50 (µM)

Solved cases below.
{"columns": ["COMPOUND", "IC50 / µM"],
 "data": [
  ["O=C(O)COc1ccc(Cl)cc1[C@@H]1c2ccccc2CCN1C(=O)OCc1cncnc1", 0.00086],
  ["Cn1nc(COC(=O)N2CCc3cc(F)ccc3[C@H]2c2cc(Cl)ccc2OCC(=O)O)c2ccccc21", 0.00116],
  ["O=C(O)COc1ccc(Cl)cc1C1c2ccccc2CN1C(=O)CCn1ncc2cccc(F)c21 (single isomer, unassigned) [Example 537]", 0.0258],
  ["O=C(O)COc1ccc(Cl)cc1[C@@H]1c2ccc(F)cc2CCN1C(=O)CCn1ncc2cc(Cl)ccc21", 0.152],
  ["CCn1nc(C)cc1CCOC(=O)N1CCc2ccccc2[C@H]1c1cc(Cl)ccc1OCC(=O)O", 0.00294],
  ["O=C(O)COc1ccc(Cl)cc1[C@@H]1c2ccc(F)cc2CCN1C(=O)OCc1nccs1", 0.00626],
  ["O=C(O)COc1ccc(Cl)cc1C1c2ccccc2CCN1C(=O)COc1ccc(Cl)cc1 (racemic)", 0.0402],
  ["Cc1nn(CCC(=O)N2Cc3ccccc3C2c2cc(Cl)ccc2OCC(=O)O)c2cccc(F)c12 (single isomer, unassigned) [Example 538]", 0.704]
]}

[A] Cc1cc(C)n(CCOC(=O)N2CCc3cc(F)ccc3[C@H]2c2cc(Cl)ccc2OCC(=O)O)n1
[B] Cc1cccc([C@@H]2C[C@H]2C(=O)N2CCc3ccccc3C2c2cc(Cl)ccc2OCC(=O)O)c1 (mixture of isomers)
[C] Cc1nc2ccccc2n1CCOC(=O)N1CCc2ccccc2[C@H]1c1cc(Cl)ccc1OCC(=O)O
[D] COc1ncc(C)cc1OCC(=O)N1CCc2ccccc2C1c1cc(Cl)ccc1OCC(=O)O (racemic)
Hello, I need these entries ordered by IC50, highest reading first. Thanks! Write out the labels following the order that was asked for. D, C, B, A
(D: 0.161 µM, C: 0.0981 µM, B: 0.0466 µM, A: 0.0111 µM)

[1] Cc1nn(CCC(=O)N2Cc3ccccc3C2c2cc(Cl)ccc2OCC(=O)O)c2cccc(Cl)c12 (single isomer, unassigned) [Example 529]
[2] Cc1ncc(COC(=O)N2CCc3c(ccc(F)c3F)[C@H]2c2cc(Cl)ccc2OCC(=O)O)s1
Compare 1 and 2 by numeric IC50 and name the larger one. Answer by stating the label of the chosen item. 1

###

target: hCRTH2 receptor (Homo sapiens); construct: expressed in transfected cells; host or cells: HEK293; experiment: Radioligand displacement assay (3H-PGD2) on hCRTH2 receptor membranes; assay type: binding; conditions: antagonistic activity; 3H-PGD2 displacement on HEK293-hCRTH2 membrane fragments
MEASURED METRIC: IC50 (nM)

Solved cases below.
{"columns": ["COMPOUND", "READOUT UNITS", "IC50"],
 "data": [
  ["O=C(O)COc1cc(F)c(F)cc1C1c2ccccc2CCN1C(=O)OCc1ccccc1 (racemic)", "nM", 30.1],
  ["Cc1conc1COC(=O)N1CCc2ccccc2[C@H]1c1cc(Cl)ccc1OCC(=O)O", "nM", 0.35],
  ["O=C(O)COc1ccc(F)cc1C1c2ccccc2CCN1C(=O)CCCc1ccccc1 (racemic)", "nM", 29]
]}

[1] O=C(O)COc1ccc(Cl)cc1C1c2cccc(F)c2CCN1C(=O)OCc1ccccc1Cl (racemic)
[2] CCS(=O)(=O)c1ccc(OCC(=O)O)c(C2c3ccccc3CCN2C(=O)OCc2ccccc2)c1 (racemic)
Compare 1 and 2 by numeric IC50 and name the larger one. Answer by stating the label of the chosen item. 2
(2: 346 nM, 1: 8.75 nM)

###

target: hCRTH2 receptor (Homo sapiens); construct: expressed in transfected cells; host or cells: HEK293; assay: Radioligand displacement assay (3H-PGD2) on hCRTH2 receptor membranes; assay type: binding; conditions: antagonistic activity; 3H-PGD2 displacement on HEK293-hCRTH2 membrane fragments
MEASURED METRIC: IC50 (nM)

Solved cases below.
{"columns": ["MOLECULE", "TARGET OR TEST SYSTEM", "IC50, nM"],
 "data": [
  ["Cc1ccc(CCCC(=O)N2CCc3ccccc3C2c2cc(Cl)ccc2OCC(=O)O)cc1 (racemic)", "hCRTH2 receptor (Homo sapiens)", 9.7],
  ["O=C(O)COc1ccc(F)cc1C1c2cccc(Br)c2CCN1C(=O)OCc1ccccc1 (racemic)", "hCRTH2 receptor (Homo sapiens)", 7.9],
  ["Cc1ccc(COCC(=O)N2CCc3ccccc3C2c2cc(F)ccc2OCC(=O)O)cc1 (racemic)", "hCRTH2 receptor (Homo sapiens)", 90.2],
  ["O=C(O)COc1ccc(Cl)cc1C1c2ccccc2CCN1C(=O)Cc1c[nH]c2ccc(Cl)cc12 (racemic)", "hCRTH2 receptor (Homo sapiens)", 172],
  ["O=C(O)COc1ccc(F)cc1C1c2ccccc2CCN1C(=O)Cc1ccccc1 (racemic)", "hCRTH2 receptor (Homo sapiens)", 417]
]}

[A] CC(C)(CC(=O)N1CCc2ccccc2C1c1cc(F)ccc1OCC(=O)O)c1ccccc1 (racemic)
[B] O=C(O)COc1ccc(Cl)cc1C1c2ccccc2CCN1C(=O)COCc1ccccc1Cl (racemic)
Parameter metric = IC50. Return the lower-valued option from A and B . Answer by stating the label of the chosen item. B
(B: 4.06 nM, A: 916 nM)
